Below is a list of entries, each paired with its recorded GI50 value.
# Test system: U-251
# EXPERIMENT: NCI tumour cell line growth inhibition, 48 h
Activity calls are given as the source filed them. Rule as the data show it: active = GI50 up to about 1.1 µM and inactive = higher.

{"COMPOUND": "C#CCOCn1cnc2c(N)ncnc21", "MEASURED_VALUE": "> 100 µM (inactive)"}
{"COMPOUND": "Cc1nnc(N)s/c1=N/O", "MEASURED_VALUE": "> 100 µM (inactive)"}
{"COMPOUND": "O=C(CC(=O)n1nc(-c2ccccc2)c(/N=N/c2ccccc2Cl)c1-c1ccccc1)Nc1ccc(Cl)cc1", "MEASURED_VALUE": "> 38.6 µM (inactive)"}

Problem: Input O=C1CSC2(CC(/C=C/c3ccccc3)=NN2c2cccc(S(=O)(=O)O)c2)N1c1nc2ccccc2s1 (stereo unspecified) , output reported GI50.
Solution: 20.6 µM (inactive)

Problem: Input COc1ccc(C2C(Cl)C(=O)N2NC(=O)Cc2ccccc2)cc1OC (stereo unspecified) , output reported GI50.
Solution: > 100 µM (inactive)

Problem: Input C/C=C(\C)[C@@H](O)C(=O)O[C@@H]1CC(C(C)(C)O)[C@](C)(CCC(=O)OC)[C@H]2[C@H](OC(=O)[C@H](O)[C@H](C)CC)C[C@]3(C)C(=CC[C@H]3[C@H]3CO[C@H](C=C(C)C)C3)[C@]12C (stereo partly specified) , output reported GI50.
Solution: 18.8 µM (inactive)

Problem: Input Nc1n[nH]c2nc3ccc(C(F)(F)F)cc3nc12 , output reported GI50.
Solution: 39.5 µM (inactive)

---

Below is a list of entries, each paired with its recorded GI50 value.
# Test system: HL-60
# EXPERIMENT: NCI tumour cell line growth inhibition, 48 h
The source made the active and inactive calls. Cut-off read from the data, not from the text of the source: active = GI50 up to about 1.1 µM and inactive = higher.

{"COMPOUND": "O=C1CC2C(=O)c3ccccc3CC2c2ccccc21 (stereo not given)", "TARGET_OF_ASSAY": "HL-60", "GI50": "17.9 µM (inactive)"}
{"COMPOUND": "c1ccc2c(c1)NC(C1OC3CCCN3C1C1Nc3ccccc3S1)S2 (stereo not given)", "TARGET_OF_ASSAY": "HL-60", "GI50": "20.6 µM (inactive)"}
{"COMPOUND": "CNc1ccc2nc(-c3ccc(OC(=O)N(C)C)cc3)cn2c1", "TARGET_OF_ASSAY": "HL-60", "GI50": "22.5 µM (inactive)"}

Problem: Input CC(=O)CC(C)(C)NC(=O)[C@@]1(O)CC[C@H]2[C@@H]3CCC4=CC(=O)CC[C@@H]4[C@H]3CC[C@@]21C , output reported GI50.
Solution: 70.3 µM (inactive)

Problem: Input COCN1C(=O)[C@@H]2CCCN2C(=O)c2ccc(N)cc21 , output reported GI50.
Solution: > 100 µM (inactive)

---

# System: HT-29
# EXPERIMENT: NCI tumour cell line growth inhibition, 48 h
Activity calls are given as the source filed them. Rule as the data show it: active = GI50 up to about 1.1 µM and inactive = higher.
In this exercise, the only acceptable responses are Y (active), N (inactive)

{"COMPOUND": "Cc1cc2oc(=O)[nH]c(=S)c2c(C)c1C", "ASSIGNED_CLASS": "N"}
{"COMPOUND": "O=NN(Cc1ccc(Cl)cc1)C(C(=O)O)c1ccccc1 (stereo unspecified)", "ASSIGNED_CLASS": "N"}

Problem: Please state the recorded outcome for this compound: COC(=O)c1c(C(=O)OC)c2ccc(-c3ccc(Cl)cc3)nn2c1C(=O)c1ccc([N+](=O)[O-])cc1
Solution: N

Problem: Please state the recorded outcome for this compound: O=C(C[n+]1ccc2ccccc2c1)c1ccc2ccc3ccccc3c2c1
Solution: Y

Problem: Please state the recorded outcome for this compound: O=C(O)C12CC3CC(C1)C2C=C3P(=O)(O)O (stereo unspecified)
Solution: N

---

# System: ACHN
# EXPERIMENT: NCI tumour cell line growth inhibition, 48 h
Activity calls are given as the source filed them. No stated cut-off is given here; in the data, active = GI50 up to about 1.1 µM and inactive = higher.
In this exercise, the only acceptable responses are active, inactive

Problem: Please state the recorded outcome for this molecule: O=NN1CCNC1Cc1ccccc1 (stereo not given)
Solution: inactive

Problem: Please state the recorded outcome for this molecule: Clc1nncc2sc(-c3ccccc3)nc12
Solution: inactive

Problem: Please state the recorded outcome for this molecule: Oc1ccc2ccccc2c1-c1nnc(CCCCCCCCc2nnc(-c3c(O)ccc4ccccc34)o2)o1
Solution: active

Problem: Please state the recorded outcome for this molecule: O=C1N2CCc3c([nH]c4ccccc34)C23CC2CCCC12S3 (stereo not given)
Solution: inactive

Problem: Please state the recorded outcome for this molecule: Cc1ccc2c(O)cc(-c3cccs3)nc2n1
Solution: inactive

---

Below is a list of entries, each paired with its recorded GI50 value.
# System: DU-145
# EXPERIMENT: NCI tumour cell line growth inhibition, 48 h
Activity calls are given as the source filed them. Cut-off read from the data, not from the text of the source: active = GI50 up to about 1.1 µM and inactive = higher.

Example compounds with recorded GI50:
{"COMPOUND": "O=C1CSC2(CC(/C=C/c3ccccc3)=NN2c2cccc(S(=O)(=O)O)c2)N1c1nc2ccccc2s1 (stereo not given)", "MEASURED_VALUE": "25.4 µM (inactive)"}
{"COMPOUND": "OCCN1CCN(c2nc(N3CCCC3)c3nc(Cl)c(NCc4ccccc4)nc3n2)CC1", "MEASURED_VALUE": "8.15 µM (inactive)"}
{"COMPOUND": "COC(=O)[C@]12CSC[C@H]1C[C@H](c1ccccc1OC)N2", "MEASURED_VALUE": "> 100 µM (inactive)"}
{"COMPOUND": "C=C1CN=C(Nc2ccc(Cl)cc2)S1", "MEASURED_VALUE": "> 100 µM (inactive)"}

Next compound, please.
Problem: Input Cn1c(-c2ccccc2)cc(-c2cccs2)c1-c1ccsc1 , output reported GI50.
Solution: > 100 µM (inactive)

---

Below is a list of entries, each paired with its recorded GI50 value.
# System: CCRF-CEM
# EXPERIMENT: NCI tumour cell line growth inhibition, 48 h
The source made the active and inactive calls. Rule as the data show it: active = GI50 up to about 1.1 µM and inactive = higher.

Example compounds with recorded GI50:
{"COMPOUND": "Nc1n[nH]c2nc3ccc(C(F)(F)F)cc3nc12", "GI50": "17 µM (inactive)"}
{"COMPOUND": "O=C(NC(Cc1ccccc1)C(=O)CCl)OCc1ccccc1 (stereo not given)", "GI50": "2.74 µM (inactive)"}
{"COMPOUND": "CC(C)NCC(O)c1cc(OCc2ccccc2)c(OCc2ccccc2)cc1NC(=O)CCC(=O)O (stereo not given)", "GI50": "2.58 µM (inactive)"}

Problem: // output GI50; input CCOC(=O)C1=C(Nc2ccc(Cl)c(Cl)c2)OC/C1=N\NC(=O)Cc1ccccc1 ; system CCRF-CEM
Solution: > 100 µM (inactive)

Problem: // output GI50; input CN(C)CCNC(=O)c1cccc2nc(-c3ccccc3)oc12 ; system CCRF-CEM
Solution: 45.6 µM (inactive)

Problem: // output GI50; input CC(C)(C)C(=O)C(C(=O)c1ccccc1)C(=O)C(C)(C)C ; system CCRF-CEM
Solution: > 100 µM (inactive)

Problem: // output GI50; input Cc1nc(C)c(N2CCNCC2)c(O)n1 ; system CCRF-CEM
Solution: > 100 µM (inactive)

Problem: // output GI50; input C[n+]1c(/C=C/c2ccc(/C=N/NC(=O)c3ccc(C(=O)N/N=C/c4ccc(/C=C/c5cn6ccccc6[n+]5C)cc4)cc3)cc2)cn2ccccc21 ; system CCRF-CEM
Solution: 20 µM (inactive)

Problem: // output GI50; input Cc1ccc(/C=C2\CN(C)CC3=C2OC(N)=C(C#N)C3c2ccc(C)cc2)cc1 (stereo not given) ; system CCRF-CEM
Solution: 4.2 µM (inactive)

Problem: // output GI50; input CCC1(c2c(F)c(F)c(N)c(F)c2F)CCC(=O)NC1=O (stereo not given) ; system CCRF-CEM
Solution: > 100 µM (inactive)

---

# System: K562
# EXPERIMENT: NCI tumour cell line growth inhibition, 48 h
Activity calls are given as the source filed them. Cut-off read from the data, not from the text of the source: active = GI50 up to about 1.1 µM and inactive = higher.
In this exercise, the only acceptable responses are yes (1) (active), no (0) (inactive)

{"COMPOUND": "C=CC[C@@]1([C@H](C=C)COCc2ccc(OC)cc2)CC[C@]2(C)OC(C)(C)[C@@H](c3ccccc3)N2C1=S", "TARGET_OF_ASSAY": "K562", "ASSIGNED_CLASS": "no (0)"}
{"COMPOUND": "OC[C@H]1CCCC1O (stereo not given in full)", "TARGET_OF_ASSAY": "K562", "ASSIGNED_CLASS": "no (0)"}
{"COMPOUND": "O=C(c1cc(Cl)cc(Cl)c1)N(Cc1cccnc1)C(=S)N(Cc1cccnc1)C(=O)c1cc(Cl)cc(Cl)c1", "TARGET_OF_ASSAY": "K562", "ASSIGNED_CLASS": "no (0)"}

Problem: Please state the recorded outcome for this compound: O=C1C=C(Br)C(=O)C12CCc1ccccc12 (stereo not given)
Solution: no (0)

Problem: Please state the recorded outcome for this compound: CCNC(=O)C1CCCN1C(=O)C(CCCN=C(N)N)NC(=O)C(CC(C)C)NC(=O)C(Cc1c[nH]c2ccccc12)NC(=O)C(Cc1ccc(O)cc1)NC(=O)C(CO)NC(=O)C(Cc1c[nH]c2ccccc12)NC(=O)C(Cc1c[nH]cn1)NC(=O)C1CCC(=O)N1 (stereo not given)
Solution: no (0)

Problem: Please state the recorded outcome for this compound: C/C(CCN(C)C)=N\OC(=O)c1ccccc1
Solution: no (0)
